target-of-assay: rat VMAT2-His (Rattus norvegicus, UniProt Q01827)
Construct: The ORF of rat VMAT2 was subcloned into a pFastBac vector; His; made in house; host or cells: Sf9 insect cells (baculovirus)
Sequence (Q01827 whole entry): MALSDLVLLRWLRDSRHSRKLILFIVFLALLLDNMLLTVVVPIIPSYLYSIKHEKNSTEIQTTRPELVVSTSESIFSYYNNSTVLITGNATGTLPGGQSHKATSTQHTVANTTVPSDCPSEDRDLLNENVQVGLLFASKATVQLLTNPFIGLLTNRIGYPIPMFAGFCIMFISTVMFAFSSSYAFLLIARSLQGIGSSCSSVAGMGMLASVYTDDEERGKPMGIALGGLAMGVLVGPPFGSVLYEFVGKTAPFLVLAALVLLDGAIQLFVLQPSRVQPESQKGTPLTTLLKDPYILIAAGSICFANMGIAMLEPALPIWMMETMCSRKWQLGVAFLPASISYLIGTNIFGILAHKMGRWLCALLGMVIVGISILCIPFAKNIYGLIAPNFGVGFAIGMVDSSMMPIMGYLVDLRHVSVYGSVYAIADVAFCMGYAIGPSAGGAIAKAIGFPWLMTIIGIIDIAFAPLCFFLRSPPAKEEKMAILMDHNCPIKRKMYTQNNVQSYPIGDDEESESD
assay: Differential scanning fluorimetry (DSF) with CPM dye: change of melting temperature of purified VMAT2
Format: binding
measurement-conditions: Table S2 dose response, compound 90 µM; read-out: ΔTm
Where a name gives a salt, the structure may show the parent alone.
Collected ΔTm at 90 µM values appear next to each entry.
Hi! Could you send only the number? It should be in °C, unit omitted.

{"compound": "C[C@H](CCC(=O)O)[C@H]1CC[C@H]2[C@@H]3C(=O)C[C@@H]4CC(=O)CC[C@]4(C)[C@H]3CC(=O)[C@]12C [Dehydrocholic acid]", "target-of-assay": "rat VMAT2-His (Rattus norvegicus, UniProt Q01827)", "ΔTm at 90 µM, °C": 0.53}

Task: Reported ΔTm at 90 µM for Clc1ccc(Cn2c(CN3CCCC3)nc3ccccc32)cc1 [Clemizole hydrochloride] : what is it?
Output: 0.31

Task: Reported ΔTm at 90 µM for CC(C)(C)c1ccc(C(O)CCCN2CCC(C(O)(c3ccccc3)c3ccccc3)CC2)cc1 (centres unmarked) [Terfenadine] : what is it?
Output: -0.01

Task: Reported ΔTm at 90 µM for CN1CCCC(n2nc(Cc3ccc(Cl)cc3)c3ccccc3c2=O)CC1 (centres unmarked) [Azelastine HCl] : what is it?
Output: 0.23

Task: Reported ΔTm at 90 µM for C=CCc1ccccc1OCC(O)CNC(C)C (centres unmarked) [Alprenolol hydrochloride] : what is it?
Output: 0.4

Task: Reported ΔTm at 90 µM for CCCc1nn(C)c2c(=O)[nH]c(-c3cc(S(=O)(=O)N4CCN(C)CC4)ccc3OCC)nc12 [Sildenafil] : what is it?
Output: 0.39

Task: Reported ΔTm at 90 µM for CN1CCC(=C2c3ccccc3Sc3ccccc32)CC1 [Pimethixene maleate] : what is it?
Output: -0.14

Task: Reported ΔTm at 90 µM for CC(NCCC(c1ccccc1)c1ccccc1)c1ccccc1 (centres unmarked) [Fendiline hydrochloride] : what is it?
Output: -1.16

meta.source: paper PMC9684503
